Assay: Lipophilicity, logD of the compound at pH 7.4
Type: physicochemical
Conditions: buffer, read-out: logD
MEASUREMENT LABEL: logD

SMILES NOTATION	VALUE OBSERVED
Cc1ccc(S(=O)(=O)N(CC(=O)O)c2cc(OCc3ccc(F)cc3)c(N(CC(=O)O)S(=O)(=O)c3ccc(C)cc3)c3ccccc23)cc1	0.33

----------
Biological target: Keap1/Nrf2 (Homo sapiens, UniProt Q14145)
Sequence (Q16236 whole entry, the tested form may be a part): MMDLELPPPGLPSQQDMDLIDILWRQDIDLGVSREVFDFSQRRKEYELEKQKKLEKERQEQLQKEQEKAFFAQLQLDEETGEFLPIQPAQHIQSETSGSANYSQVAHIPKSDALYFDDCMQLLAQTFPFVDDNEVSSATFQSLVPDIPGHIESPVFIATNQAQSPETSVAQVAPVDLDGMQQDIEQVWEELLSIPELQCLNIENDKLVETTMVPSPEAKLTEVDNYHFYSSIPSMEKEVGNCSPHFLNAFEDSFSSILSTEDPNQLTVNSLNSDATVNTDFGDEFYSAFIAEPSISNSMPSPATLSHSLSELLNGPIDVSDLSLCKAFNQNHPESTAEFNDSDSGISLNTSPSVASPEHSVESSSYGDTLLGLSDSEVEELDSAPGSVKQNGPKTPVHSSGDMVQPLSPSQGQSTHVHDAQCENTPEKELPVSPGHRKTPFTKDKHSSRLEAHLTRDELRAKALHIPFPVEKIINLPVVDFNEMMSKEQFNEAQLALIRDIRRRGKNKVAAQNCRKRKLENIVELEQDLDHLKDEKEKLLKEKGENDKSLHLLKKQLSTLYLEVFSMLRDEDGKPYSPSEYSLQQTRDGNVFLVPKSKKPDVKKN
Sequence (Q14145 whole entry, the tested form may be a part): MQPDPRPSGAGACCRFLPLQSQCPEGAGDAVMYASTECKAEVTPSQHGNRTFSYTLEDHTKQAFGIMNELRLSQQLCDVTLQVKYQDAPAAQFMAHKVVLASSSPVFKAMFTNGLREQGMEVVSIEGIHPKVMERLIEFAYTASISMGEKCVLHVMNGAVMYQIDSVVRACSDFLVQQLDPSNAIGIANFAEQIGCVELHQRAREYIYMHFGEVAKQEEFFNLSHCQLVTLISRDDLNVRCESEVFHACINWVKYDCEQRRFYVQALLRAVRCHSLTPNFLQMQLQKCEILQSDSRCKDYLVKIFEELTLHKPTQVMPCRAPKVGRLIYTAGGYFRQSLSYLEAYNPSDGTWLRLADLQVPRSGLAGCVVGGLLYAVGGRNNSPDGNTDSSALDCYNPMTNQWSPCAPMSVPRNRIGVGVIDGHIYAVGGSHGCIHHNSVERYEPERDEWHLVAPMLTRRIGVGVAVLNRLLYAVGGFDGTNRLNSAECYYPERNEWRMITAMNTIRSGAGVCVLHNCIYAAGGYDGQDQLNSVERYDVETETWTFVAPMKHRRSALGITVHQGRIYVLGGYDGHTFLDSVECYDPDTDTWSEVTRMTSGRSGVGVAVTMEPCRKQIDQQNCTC
Assay: Inhibition of recombinant human Keap1 Kelch domain (321 to 609 residues) expressed in Escherichia coli BL21 (DE3)pLysS cells/Nrf2 (unknown origin) protein-protein interaction using FITC-LDEETGEFL-NH2 as fluorescent substrate preincubated with compound for 30 mins followed by substrate addition and measured after 1 hr by fluorescence polarization assay relative to control
// reported IC50 for each item listed
MEASUREMENT LABEL: IC50

SMILES NOTATION	MEASUREMENT LABEL	VALUE OBSERVED
COc1ccc(S(=O)(=O)N(CC(=O)O)c2ccc(N(CC(=O)O)S(=O)(=O)c3ccc(OC)cc3)c(OCCc3ccccc3)c2)cc1	IC50	1020 nM
COc1ccc(S(=O)(=O)N(CC(=O)O)c2ccc(N(CC(=O)O)S(=O)(=O)c3ccc(OC)cc3)c(Oc3ccc(-c4ccccc4)cc3)c2)cc1	IC50	1190 nM
COc1ccc(COc2cc(N(CC(=O)O)S(=O)(=O)c3ccc(OC)cc3)ccc2N(CC(=O)O)S(=O)(=O)c2ccc(OC)cc2)cc1	IC50	770 nM
O=C(O)CN(c1ccc(N(CC(=O)O)S(=O)(=O)c2ccc(Br)cc2)c(OCc2ccccc2)c1)S(=O)(=O)c1ccc(Br)cc1	IC50	590 nM
COc1ccc(S(=O)(=O)N(CC(=O)O)c2ccc(N(CC(=O)O)S(=O)(=O)c3ccc(OC)cc3)c(OCc3ccc(C)cc3)c2)cc1	IC50	620 nM
Cc1cc(C)c(S(=O)(=O)N(CC(=O)O)c2ccc(N(CC(=O)O)S(=O)(=O)c3c(C)cc(C)cc3C)c(OCc3ccc(F)cc3)c2)c(C)c1	IC50	3730 nM
COc1ccc(S(=O)(=O)N(CC(=O)O)c2ccc(N(CC(=O)O)S(=O)(=O)c3ccc(OC)cc3)c(OCCCc3ccccc3)c2)cc1	IC50	950 nM

----------
// values below are reported IC50
Target: Keap1/Nrf2 (Homo sapiens, UniProt Q14145)
Assay: Inhibition of recombinant human Keap1 Kelch domain (321 to 609 residues) expressed in Escherichia coli BL21 (DE3)pLysS cells/Nrf2 (unknown origin) protein-protein interaction using FITC-LDEETGEFL-NH2 as fluorescent substrate preincubated with compound for 30 mins followed by substrate addition and measured after 1 hr by fluorescence polarization assay relative to control

SMILES NOTATION	UNIT LABEL	IC50
COc1ccc(S(=O)(=O)N(CC(=O)O)c2ccc(N(CC(=O)O)S(=O)(=O)c3ccc(OC)cc3)c(N(C)Cc3ccccc3)c2)cc1	µM	6.17
COc1ccc(S(=O)(=O)N(CC(=O)O)c2ccc(N(CC(=O)O)S(=O)(=O)c3ccc(OC)cc3)c(OCc3ccc(-c4ccccc4)cc3)c2)cc1	µM	0.39
Cc1ccc(S(=O)(=O)N(CC(=O)O)c2ccc(N(CC(=O)O)S(=O)(=O)c3ccc(C)cc3)c(OCc3ccc4ccccc4c3)c2)cc1	µM	0.38
COc1ccc(S(=O)(=O)N(CC(=O)O)c2ccc(N(CC(=O)O)S(=O)(=O)c3ccc(OC)cc3)c(Oc3ccc4ccccc4c3)c2)cc1	µM	0.89
